TARGET: rLen c 3 (Lens culinaris)
Construct: with the formation of the large fragment 1–80 and the protein without C-terminal Phe93; His8-TrxL (octahistidine-thioredoxin carrier) (N, cleaved yes); made in house; host or cells: Escherichia coli BL-21 (DE3)
ASSAY_REMARKS: TNS displacement lipid binding assay
Parameters: species or system lentil
RUN_PARAMETERS: IC50 (TNS displacement), 150 mM sodium chloride, pH 2.5; 25 °C; 4 μM TNS, 4 μM rLen c 3
OUTCOME_MEASURE: pIC50
Value format note: pIC50 is -log10 of concentration (mol/L); just state the number.

Return the recorded pIC50 value; entry: CCCCCCCCCCCCCCCCCC(=O)O
5.29

---

TARGET: rLen c 3 (Lens culinaris, UniProt A0AT29)
Construct: with the formation of the large fragment 1–80 and the protein without C-terminal Phe93; His8-TrxL (octahistidine-thioredoxin carrier) (N, cleaved yes); made in house; host or cells: Escherichia coli BL-21 (DE3)
Sequence (A0AT29 26-118): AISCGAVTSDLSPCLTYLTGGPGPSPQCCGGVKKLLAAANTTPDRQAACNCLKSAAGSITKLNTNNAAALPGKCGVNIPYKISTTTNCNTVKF
ASSAY_REMARKS: Effect of lipid ligands on secondary structure and thermostability of rLen c 3 (CD spectroscopy)
Type: physicochemical, lentil
RUN_PARAMETERS: heating up to 98.5 °C, pH 7.4, ligand 1 mM
OUTCOME_MEASURE: Effect of ligand on rLen c 3 thermostability (resistance to thermal denaturation)

SMILES_STRUCTURE	RESULT
CCCCCCCCCCCC(=O)O	slight protective effect
CCCCCCCCCCCCCCCCCCCCCC(=O)O	slight protective effect

---

TARGET: rLen c 3 (Lens culinaris)
Construct: with the formation of the large fragment 1–80 and the protein without C-terminal Phe93; His8-TrxL (octahistidine-thioredoxin carrier) (N, cleaved yes); made in house; host or cells: Escherichia coli BL-21 (DE3)
Sequence (A0AT29 26-118): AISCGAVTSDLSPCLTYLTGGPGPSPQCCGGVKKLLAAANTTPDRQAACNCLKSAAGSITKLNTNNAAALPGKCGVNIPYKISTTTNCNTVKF
ASSAY_REMARKS: TNS displacement lipid binding assay
Parameters: species or system lentil
RUN_PARAMETERS: IC50 (TNS displacement), 10 mM phosphate buffer, pH 7.4; 25 °C; 4 μM TNS, 4 μM rLen c 3
OUTCOME_MEASURE: pIC50
Value format note: pIC50 is -log10 of concentration (mol/L); just state the number.

Return the recorded pIC50 value; entry: CCCCCCCCCCCCCCCCCC(=O)O [STE, stearic acid]
5.35

---

TARGET: rLen c 3 (Lens culinaris)
Construct: with the formation of the large fragment 1–80 and the protein without C-terminal Phe93; His8-TrxL (octahistidine-thioredoxin carrier) (N, cleaved yes); made in house; host or cells: Escherichia coli BL-21 (DE3)
ASSAY_REMARKS: TNS displacement lipid binding assay
Parameters: species or system lentil
RUN_PARAMETERS: pH 2.5 compared with pH 7.4
OUTCOME_MEASURE: Change of rLen c 3 affinity for the ligand at acidic pH

COMPOUND	RESULT
CCCCCCCC/C=C\CCCCCCCC(=O)O	decreased
CCCCCCCCCCCCCCCCCC(=O)O	decreased
CCCCCCCCCCCCCCCC(=O)OC[C@@H](O)COP(=O)(O)OCC(O)CO (some centres unmarked)	remained unchanged
CCCCCCCCCCCC(=O)O	remained unchanged

---

Task for the reader: assign each of the following molecules its reported IC50.
TARGET: rLen c 3 (Lens culinaris, UniProt A0AT29)
Construct: with the formation of the large fragment 1–80 and the protein without C-terminal Phe93; His8-TrxL (octahistidine-thioredoxin carrier) (N, cleaved yes); made in house; host or cells: Escherichia coli BL-21 (DE3)
ASSAY_REMARKS: TNS displacement lipid binding assay
Set-up: species or system lentil
RUN_PARAMETERS: 150 mM sodium chloride, pH 2.5; 25 °C; 4 μM TNS, 4 μM rLen c 3; read-out: IC50 (TNS displacement)
Number in µM, nothing else.

Return the recorded IC50 value; entry: CCCCCCCCCCCC(=O)O
2.1

Return the recorded IC50 value; entry: CCCCCCCCCCCCCCCCCCCCCC(=O)O
6.2

Return the recorded IC50 value; entry: CCCCCCCC/C=C\CCCCCCCC(=O)O
2.6

Return the recorded IC50 value; entry: CCCCCCCCCCCCCCCC(=O)OC[C@@H](O)COP(=O)([O-])OCC[N+](C)(C)C
7.3

Return the recorded IC50 value; entry: CCCCCCCCCCCCCCCC(=O)OC[C@@H](O)COP(=O)(O)OCC(O)CO (some centres unmarked)
4.3

---

TARGET: rLen c 3 (Lens culinaris)
Construct: with the formation of the large fragment 1–80 and the protein without C-terminal Phe93; His8-TrxL (octahistidine-thioredoxin carrier) (N, cleaved yes); made in house; host or cells: Escherichia coli BL-21 (DE3)
Sequence (A0AT29 26-118): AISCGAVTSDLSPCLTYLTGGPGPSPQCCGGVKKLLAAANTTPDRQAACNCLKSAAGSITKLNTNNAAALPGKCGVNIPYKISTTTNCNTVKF
ASSAY_REMARKS: TNS displacement lipid binding assay
Parameters: species or system lentil
RUN_PARAMETERS: 10 mM phosphate buffer, pH 7.4; 25 °C; 4 μM TNS, 4 μM rLen c 3; read-out: IC50 (TNS displacement)
Param label: returns Yes when IC50 < 6 µM, returns No otherwise, including exact equality.

Does this compound meet the criterion IC50 < 6 µM? CCCCCCCCCCCC(=O)O
Yes

Does this compound meet the criterion IC50 < 6 µM? CCCCCCCCCCCCCCCC(=O)OC[C@@H](O)COP(=O)([O-])OCC[N+](C)(C)C
No

Does this compound meet the criterion IC50 < 6 µM? CCCCCCCC/C=C\CCCCCCCC(=O)O
Yes

Does this compound meet the criterion IC50 < 6 µM? CCCCCCCCCCCCCCCC(=O)OC[C@@H](O)COP(=O)(O)OCC(O)CO (some centres unmarked)
Yes

---

TARGET: rLen c 3 (Lens culinaris, UniProt A0AT29)
Construct: with the formation of the large fragment 1–80 and the protein without C-terminal Phe93; His8-TrxL (octahistidine-thioredoxin carrier) (N, cleaved yes); made in house; host or cells: Escherichia coli BL-21 (DE3)
Sequence (A0AT29 26-118): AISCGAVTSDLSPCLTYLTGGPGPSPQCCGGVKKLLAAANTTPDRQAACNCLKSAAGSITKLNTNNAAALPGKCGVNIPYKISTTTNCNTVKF
ASSAY_REMARKS: Effect of lipid ligands on gastrointestinal digestion of rLen c 3
Type: in vitro ADME, lentil
RUN_PARAMETERS: gastric then duodenal digestion; LTP to lipid molar ratio 1:4
OUTCOME_MEASURE: Effect of ligand on rLen c 3 degradation rate (proteolytic digestion)

MOLECULE	TARGET	RESULT
CCCCCCCCCCCCCCCC(=O)OC[C@@H](O)COP(=O)(O)OCC(O)CO (stereo partly drawn)	rLen c 3 (Lens culinaris, UniProt A0AT29)	more pronounced
CCCCCCCC/C=C\CCCCCCCC(=O)O	rLen c 3 (Lens culinaris, UniProt A0AT29)	more pronounced
